# Test system: RPMI-8226
# assayName: panel of 60 human tumor cell lines, growth inhibition (Leukemia)
# statedConditions: RPMI-8226; Log10 Concentration −8.0
measurementName: Percent Growth (%)

- C=C1C(=O)O[C@H]2[C@H]1CC/C(COC(=O)NCCN1CCOCC1)=C\CC[C@@]1(C)O[C@@H]21: 100
- C=C1C(=O)O[C@H]2[C@H]1CC/C(COC(=O)CCC(=O)N1CCC(C)CC1)=C\CC[C@@]1(C)O[C@@H]21: 101
- C=C1C(=O)O[C@H]2[C@H]1CC/C(COC(=O)NCCO)=C\CC[C@@]1(C)O[C@@H]21: 98
- C=C1C(=O)O[C@H]2[C@H]1CC/C(COC(=O)NCCN1CCCC1)=C\CC[C@@]1(C)O[C@@H]21: 184

---

# Percent Growth per entry
# System: MALME-3M
# assayName: panel of 60 human tumor cell lines, growth inhibition (Melanoma)
# statedConditions: MALME-3M; Log10 Concentration −7.0
measurementName: Percent Growth (%)

* C=C1C(=O)O[C@H]2[C@H]1CC/C(COC(=O)NCCN1CCCCC1)=C\CC[C@@]1(C)O[C@@H]21 | 99
* C=C1C(=O)O[C@H]2[C@H]1CC/C(COC(=O)CCC(=O)N1CCC(C)CC1)=C\CC[C@@]1(C)O[C@@H]21 | 108
* C=C1C(=O)O[C@H]2[C@H]1CC/C(COC(=S)n1ccnc1)=C\CC[C@@]1(C)O[C@@H]21 | 95
* C=C1C(=O)O[C@H]2[C@H]1CC/C(COC(=O)N1CCN(C)CC1)=C\CC[C@@]1(C)O[C@@H]21 | 89

---

# System: HT29
# assayName: panel of 60 human tumor cell lines, growth inhibition (Colon Cancer)
# statedConditions: HT29; Log10 Concentration −4.0
# Percent Growth per entry
measurementName: Percent Growth

- C=C1C(=O)O[C@H]2[C@H]1CC/C(COC(=O)CCC(=O)N1CCC(C)CC1)=C\CC[C@@]1(C)O[C@@H]21: −87%
- C=C1C(=O)O[C@H]2[C@H]1CC/C(COC(=O)Nc1n[nH]c(SC)n1)=C\CC[C@@]1(C)O[C@@H]21: −79%
- C=C1C(=O)O[C@H]2[C@H]1CC/C(COC(=O)NC)=C\CC[C@@]1(C)O[C@@H]21: −73%
- C=C1C(=O)O[C@H]2[C@H]1CC/C(COC(=O)NCCN1CCCC1)=C\CC[C@@]1(C)O[C@@H]21: −76%

---

# Test system: KM12
# assayName: panel of 60 human tumor cell lines, growth inhibition (Colon Cancer)
# statedConditions: KM12; Log10 Concentration −8.0
measurementName: Percent Growth (%)

- C=C1C(=O)O[C@H]2[C@H]1CC/C(COC(=O)N1CCC(F)(F)CC1)=C\CC[C@@]1(C)O[C@@H]21 [JVM 2-66]: 103
- C=C1C(=O)O[C@H]2[C@H]1CC/C(COC(=O)CCC(=O)NCc1ccc(Cl)nc1)=C\CC[C@@]1(C)O[C@@H]21 [JVM 96]: 98
- C=C1C(=O)O[C@H]2[C@H]1CC/C(COC(=O)OCCCN1CCCCC1)=C\CC[C@@]1(C)O[C@@H]21 [JVM 2-26]: 95
- C=C1C(=O)O[C@H]2[C@H]1CC/C(COC(=O)NCCc1ccccn1)=C\CC[C@@]1(C)O[C@@H]21 [JVM 61]: 105
